biological target: hα2A receptor (Homo sapiens, UniProt P08913); construct: expressed in transfected cells; host or cells: CHO cells, stably transfected; membrane preparation; assay: Radioligand binding experiment for α2A-adrenoceptor ([3H]raulwolscine, CHO cell membranes); conditions: [3H]raulwolscine binding, read-out: h-α2A pIC50 (converted)
Sequence (P08913 whole entry): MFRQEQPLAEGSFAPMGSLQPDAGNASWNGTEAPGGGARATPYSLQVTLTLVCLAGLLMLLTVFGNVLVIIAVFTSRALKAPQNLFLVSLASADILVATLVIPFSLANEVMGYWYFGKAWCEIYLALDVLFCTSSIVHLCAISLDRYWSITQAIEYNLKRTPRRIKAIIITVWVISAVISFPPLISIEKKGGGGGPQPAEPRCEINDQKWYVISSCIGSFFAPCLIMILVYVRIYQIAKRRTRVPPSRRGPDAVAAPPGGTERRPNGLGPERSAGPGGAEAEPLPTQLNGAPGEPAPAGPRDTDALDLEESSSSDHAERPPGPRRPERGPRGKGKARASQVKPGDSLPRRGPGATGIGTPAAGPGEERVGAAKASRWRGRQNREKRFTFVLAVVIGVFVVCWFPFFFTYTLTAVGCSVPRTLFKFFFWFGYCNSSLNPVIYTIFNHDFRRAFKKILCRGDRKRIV
Give measured IC50 for each item. Keep answers brief.
Give bare numbers, in nM.

Solved entries (count: 4):
- C/C(=C\c1ccccc1)CN1CCC(Nc2nccn(Cc3ccccn3)c2=O)CC1 [6-13]: 200
- C/C(=C\c1ccccc1)CN1CCC(N(C)c2nccn(CC3CCCCO3)c2=O)CC1 (centres unmarked) [15-7]: 79.4
- C/C(=C\c1ccccc1)CN1CCC(Nc2nccn(Cc3ccc(CNC(=O)C4CCCCC4)cc3)c2=O)CC1 [1-36]: 158
- C/C(=C\c1ccccc1)CN1CCC(Nc2nccn(Cc3ccc(C)cc3)c2=O)CC1 [5-9]: 158

Provide IC50 for all items below, preserving their order.
1. CC(=O)NCCNC(=O)Cn1ccnc(NC2CCN(C/C(C)=C/c3ccccc3)CC2)c1=O [1-114]
2. C=CCN1CCN(C(=O)Cn2ccnc(NC3CCN(C/C(C)=C/c4ccccc4)CC3)c2=O)CC1 [2-24]

1: 200; 2: 100

Provide IC50 for all items below, preserving their order.
1. C/C(=C\c1ccccc1)CN1CCC(Nc2nccn(-c3ccc(N4CCC(N5CCCC5)CC4)cc3)c2=O)CC1 [2-19]
2. C/C(=C\c1ccccc1)CN1CCC(Nc2nccn(-c3ccc(C(=O)NCc4ccc(F)cc4)cc3)c2=O)CC1 [1-56]
3. CSCCn1ccnc(N2CCN(C/C(C)=C/c3ccccc3)CC2)c1=O [11-1]
4. C/C(=C\c1ccccc1)CN1CCC(Nc2nccn(CCCN(C)C)c2=O)CC1 [1-14]

[50.1, 158, 316, 63.1]
